Reference for the values: ChEMBL document CHEMBL2203229

- Protocol Description: Antibacterial activity against Bacillus subtilis JH642 containing trpC2 pheA1 assessed as growth inhibition after 16 hrs by broth dilution method
- Type: functional, Bacillus subtilis subsp. subtilis str. JH642
Measured Attribute: MIC (µM)
Give the value, in units of µM, as a plain number.

Reported MIC ( CCCCCCCCCCCCO[C@@H]1O[C@@H](C)[C@H](O[C@@H]2O[C@@H](C)[C@H](OC(C)=O)[C@@H](O[C@@H]3O[C@@H](C)[C@H](OC(C)=O)[C@@H](O[C@@H]4O[C@@H](C)[C@H](OC(C)=O)[C@@H](O)[C@H]4O)[C@H]3OC(C)=O)[C@H]2O)[C@@H](O)[C@H]1O ) = 4

// MIC value for CCCCCCCCCCCCO[C@@H]1O[C@@H](C)[C@H](O[C@@H]2O[C@@H](C)[C@H](OC(C)=O)[C@@H](O[C@@H]3O[C@@H](C)[C@H](O)[C@@H](O[C@@H]4O[C@@H](C)[C@H](O)[C@@H](O)[C@H]4O)[C@H]3OC(C)=O)[C@H]2O)[C@@H](O)[C@H]1O : 8

Lab note: measured MIC of CCCCCCCCCCCCO[C@@H]1O[C@@H](C)[C@H](O[C@@H]2O[C@@H](C)[C@H](OC(C)=O)[C@@H](O[C@@H]3O[C@@H](C)[C@H](O)[C@@H](OC(C)=O)[C@H]3OC(C)=O)[C@H]2O)[C@@H](O)[C@H]1O was 8

Form: compound = CCCCCCCCCCCCO[C@@H]1O[C@@H](C)[C@H](O[C@@H]2O[C@@H](C)[C@H](OC(C)=O)[C@@H](O[C@@H]3O[C@@H](C)[C@H](OC(C)=O)[C@@H](O[C@@H]4O[C@@H](C)[C@H](O)[C@@H](O)[C@H]4OC(C)=O)[C@H]3OC(C)=O)[C@H]2O)[C@@H](O)[C@H]1O ; MIC = 8
